Reference source for all entries: ChEMBL document CHEMBL1135216

System: Vero
Assay: Tested for cytotoxic activity in African green monkey kidney cells (Vero)
Assay type: functional
Details: Chlorocebus sabaeus
Parameter Measured: MCC

Below, 2 molecules whose answers are already recorded.
{"Line Notation": "C/C(=N/N=C(/S)N/N=C(\\S)c1ccc(Cl)cc1)C12CC3CC(CC(C3)C1)C2", "Measured Target": "Vero", "MCC": "> 400 µg/mL"}
{"Line Notation": "NC(=O)c1ncn([C@@H]2O[C@H](CO)[C@@H](O)[C@H]2O)n1", "Measured Target": "Vero", "MCC": "> 400 µg/mL"}

Exam item: Please look up its MCC: `O=c1[nH]c(=O)n([C@H]2C[C@H](O)[C@@H](CO)O2)cc1/C=C/Br`
Marked response: > 400 µg/mL
